- protocol: Single ascending oral dose study in healthy volunteers: plasma pharmacokinetics
- Assay type: in vivo, human
- assay-context: plasma, oral; 1-compartmental model analysis of in vivo data in human
value-type: Vd (L/kg)

[[record]]
compound = "Cn1cc(S(=O)(=O)[C@@](C)(F)C2CCN(C(=O)Nc3ccon3)CC2)c(C(F)F)n1 [Compound I]"
reading = 0.965


---

- protocol: Single ascending oral dose study in healthy volunteers: plasma pharmacokinetics
- Assay type: in vivo, human
- assay-context: human, plasma, oral, 50 mg, 24 Hours Postdose; 50 mg; read-out: Plasma concentration, Geometric Mean
value-type: concentration at 24 h (ng/mL)

[[record]]
structure = "Cn1cc(S(=O)(=O)[C@@](C)(F)C2CCN(C(=O)Nc3ccon3)CC2)c(C(F)F)n1"
measurement_unit = "ng/mL"
reading = 175


Measured values drawn from patent US20220265629A1 for this set.
